Every entry's value here was drawn from patent US20210330611A1.

# Tested on: primary rat microglia
# PROTOCOL NOTES: Cell toxicity (dead cells, size <150 μm2) in LPS assay
# MEASUREMENT SETUP: primary microglia HTS, LPS stimulation; decreased size (<150 μm^2) as marker of toxicity
Structures can show the parent of a compound that is named as a salt.
READOUT: LPS % cell toxicity (%)
Kindly answer with a numeric value in %, unit omitted.

Answered examples (3):
Cc1cccc(C)c1NC(=O)C1CCCCN1C (centres unmarked) [Mepivacaine] :: 0
O=[N+]([O-])c1ccc(O)c2ncccc12 [Nitroxoline] :: 0
COc1cccc(OC)c1C(=O)N[C@@H]1C(=O)N2[C@@H]1SC(C)(C)[C@@H]2C(=O)O [Meticillin] :: 0

Lookup: Could you tell me which LPS % cell toxicity is on file for COCCc1ccc(OCC(O)CNC(C)C)cc1 (centres unmarked) [Metoprolol] ?
Found: 0

Lookup: GET /values?readout=LPS % cell toxicity&item= CCCNC(C)(C)COC(=O)c1ccccc1 [Meprylcaine Hydrochloride]
Found: 0

====

# Tested on: primary rat microglia
# MEASUREMENT SETUP: rat
Counter-ions that a name gives are not always drawn.
Entries and their Fibrin % cell toxicity
Numbers only here, please. The scale is %.

CCOC(=O)[C@H](CCc1ccccc1)N[C@@H](C)C(=O)N1[C@H](C(=O)O)C[C@H]2CCCC[C@@H]21 [Trandolapril] :: 1
CN(C)c1ccc2nc3ccc(=[N+](C)C)cc-3sc2c1 [Methylene Blue] :: 1
O=C(C1CCCCC1)N1CC(=O)N2CCc3ccccc3C2C1 (stereo not drawn) [Praziquantel] :: 1

Lookup: Tell me reported Fibrin % cell toxicity for CC[C@@H](c1cccc(O)c1)[C@@H](C)CN(C)C [Tapentadol Hydrochloride] , tested with primary rat microglia.
Found: 1

Lookup: Query the reported Fibrin % cell toxicity for primary rat microglia; item: C1CNCCN1 [Piperazine]
Found: 0

Lookup: Form entry - test system: primary rat microglia; read-out: Fibrin % cell toxicity; compound: O=C(Nc1ccc(C(=O)O)c(O)c1)c1ccccc1 [Benzoylpas]
Found: 4

Lookup: # get_value(readout= Fibrin % cell toxicity, system= primary rat microglia) for [H]/N=C(/N)N/C(=N/[H])NCCc1ccccc1 [Phenformin]
Found: 1

====

# Tested on: primary rat microglia
# PROTOCOL NOTES: Cell toxicity (dead cells, size <150 μm2) in coated fibrin (cFib) assay;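 also: share of dead cells sized under 150 µm2 at 10 µM in fibrin-stimulated microglia HTS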
# MEASUREMENT SETUP: primary microglia HTS, fibrin assay, dead cells (size <150 μm2)
Where a name gives a salt, the structure may show the parent alone.
READOUT: Fibrin % cell toxicity
Please answer using a numeric value trailed by its unit.

As a guide, the following entries are already answered.
Nc1nc(N)c2nc(CNc3ccc(C(=O)N[C@@H](CCC(=O)O)C(=O)O)cc3)cnc2n1 :: 1%
Nc1ncnc2c1ncn2[C@@H]1O[C@H](COP(=O)(O)O)[C@@H](O)[C@H]1O [Adenosine monophosphate] :: 1%
CC(=O)Oc1ccccc1C(=O)O :: 1%
CC(=O)Nc1ccc(OC(=O)c2ccccc2O)cc1 :: 1%
CC1(C)C(C=C(Cl)Cl)C1C(=O)OC(C#N)c1cccc(Oc2ccccc2)c1 (stereo not shown) :: 1%
C[C@@H]1[C@H](O)[C@@H](C)/C=C/C=C/C=C/C=C/C=C/C=C/C=C/[C@H](O[C@@H]2O[C@H](C)[C@@H](O)[C@H](N)[C@@H]2O)C[C@@H]2O[C@](O)(C[C@@H](O)C[C@@H](O)[C@H](O)CC[C@@H](O)C[C@@H](O)CC(=O)O[C@H]1C)C[C@H](O)[C@H]2C(=O)O :: 1%
COc1ccc(-c2ccc3cc(C(=O)O)ccc3c2)cc1C12CC3CC(CC(C3)C1)C2 :: 2%
Nc1nc2c(ncn2COCCO)c(=O)[nH]1 :: 1%
CC(=O)Nc1cccc(O)c1 :: 1%
CN1CCCC(n2nc(Cc3ccc(Cl)cc3)c3ccccc3c2=O)CC1 (stereo not shown) [Azelastine, Azelastine Hydrochloride] :: 0%

Lookup: Item under review: `O=C1c2c(O)cccc2Cc2cccc(O)c21` . Reported Fibrin % cell toxicity?
Found: 1%

Lookup: Could you tell me which Fibrin % cell toxicity is on file for `CCN1C[C@]2(COC)[C@H](O)C[C@H](OC)[C@@]34[C@@H]5C[C@@]6(O)[C@H](OC(=O)c7ccccc7)[C@@H]5[C@@](OC(C)=O)([C@@H]([C@H](OC)[C@H]23)[C@@H]14)[C@@H](O)[C@@H]6OC` ?
Found: 0%

Lookup: Fibrin % cell toxicity lookup needed for CC(N)C(=O)OC(C)(C)Cc1ccc(Cl)cc1.Cl (stereo not shown) [Alaproclate Hydrochloride, Alaproclate] , thanks.
Found: 1%

====

Listed here: items and their measured Fibrin % cell toxicity.
# Tested on: primary rat microglia
# PROTOCOL NOTES: Cell toxicity (dead cells, size <150 μm2) in coated fibrin (cFib) assay;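 also: share of dead cells sized under 150 µm2 at 10 µM in fibrin-stimulated microglia HTS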
# MEASUREMENT SETUP: primary HTS, 10 μM, fibrin assay, dead cells size <150 μm2
Give a bare numeral; the unit % is implied.

Sample answers from the record:
CCCCN1CCCCC1C(=O)Nc1c(C)cccc1C (centres unmarked) :: 1
CO/N=C(\C(=O)N[C@@H]1C(=O)N2C(C(=O)O)=C(COC(C)=O)CS[C@H]12)c1csc(N)n1 [Cefotaxime] :: 1
CNCCc1ccccn1 :: 1
CC(=O)OCC1=C(C(=O)O)N2C(=O)[C@@H](NC(=O)CSc3ccncc3)[C@H]2SC1 :: 0

Attention now shifts to the item below.
Lookup: # input compound: `Cc1ccc(S(=O)(=O)[N-]Cl)cc1.[Na+]` ; wanted: its Fibrin % cell toxicity
Found: 1

====

# Test system: primary rat microglia
# PROTOCOL NOTES: Cell toxicity (dead cells, size <150 μm2) in LPS assay
# MEASUREMENT SETUP: primary microglia HTS, LPS stimulation; decreased size (<150 μm^2) as marker of toxicity
Where a name gives a salt, the structure may show the parent alone.
# LPS % cell toxicity listing for each entry below
Note: a bare number is incomplete; add the unit.

// worked examples, LPS % cell toxicity included
CC(=O)OCC(=O)[C@@]12OC3(CCCC3)O[C@@H]1C[C@H]1[C@@H]3CCC4=CC(=O)C=C[C@]4(C)[C@@]3(F)[C@@H](O)C[C@@]12C [Amcinonide] :: 6%
COc1ccccc1OCC(O)COC(N)=O (centres unmarked) :: 0%
CNC(C)(C)Cc1ccccc1 [Mephentermine sulfate, reference compound] :: 1%
CCCCOc1cc(C(=O)OCCN(CC)CC)ccc1N :: 0%
Cc1cc(C)cc(OCC2CNC(=O)O2)c1 (centres unmarked) :: 0%

Lookup: # lookup: LPS % cell toxicity of C[C@@H](O)[C@@H]1NC(=O)[C@H](CCCCN)NC(=O)[C@@H](Cc2c[nH]c3ccccc23)NC(=O)[C@H](Cc2ccccc2)NC(=O)[C@@H](NC(=O)[C@H](N)Cc2ccccc2)CSSC[C@@H](C(=O)N[C@H](CO)[C@@H](C)O)NC1=O [Octreotide]
Found: 1%

Lookup: I'd like to know its LPS % cell toxicity. The compound in question is CO[C@H]1C[C@H](O[C@H]2[C@H](C)[C@@H](O[C@@H]3O[C@H](C)C[C@H](N(C)C)[C@H]3O)[C@@H](C)C[C@@]3(CO3)C(=O)[C@H](C)[C@@H](O)[C@@H](C)[C@@H](C)OC(=O)[C@@H]2C)O[C@@H](C)[C@@H]1O [Oleandomycin Phosphate]
Found: 0%

Lookup: Param item = C[C@H]1O[C@@H](O[C@H]2CC[C@@]3(C)[C@H](CC[C@@H]4[C@@H]3C[C@@H](O)[C@]3(C)[C@@H](C5=CC(=O)OC5)CC[C@]43O)C2)C[C@H](O)[C@@H]1O[C@H]1C[C@H](O)[C@H](O[C@H]2C[C@H](O)[C@H](O[C@@H]3O[C@H](CO)[C@@H](O)[C@H](O)[C@H]3O)[C@@H](C)O2)[C@@H](C)O1 [Deslanoside] ; retrieve measured LPS % cell toxicity.
Found: 1%

====

# Tested on: LPS-induced microglia activation
# PROTOCOL NOTES: Image-based assay of LPS-induced microglia activation (HTS and dose response)
# Assay type: cell-based, rat
# MEASUREMENT SETUP: Rattus norvegicus, Microglia, primary microglia HTS, 10 μM, LPS-stimulated, cell size >800 μm^2 as marker of activation; read-out: LPS % inhibition
READOUT: inhibition at 10 µM (%)
Your answer should be a plain number; it is taken to be in %.

Known inhibition at 10 µM results, listed for orientation:
Cc1ccc(C(=O)C(C)CN2CCCCC2)cc1 (stereo not drawn) :: 11
O=C1C(CC[S+]([O-])c2ccccc2)C(=O)N(c2ccccc2)N1c1ccccc1 (stereo not drawn) :: 13
CC(=O)OCC(COC(C)=O)OC(C)=O :: 15
CN1CCN(C(=O)OC2c3nccnc3C(=O)N2c2ccc(Cl)cn2)CC1 (stereo not drawn) :: 5

Lookup: Fill in the blank: the reported inhibition at 10 µM of `COc1ccc(CN2CCNCC2)c(OC)c1OC` is ____.
Found: 1

Lookup: Name the reported inhibition at 10 µM value associated with the compound `Oc1cc(Cl)ccc1Oc1ccc(Cl)cc1Cl`
Found: 16

Lookup: Name the recorded inhibition at 10 µM for `COc1cc(C(=O)NS(=O)(=O)c2ccccc2C)ccc1Cc1cn(C)c2ccc(NC(=O)OC3CCCC3)cc12` .
Found: 3

Lookup: Report inhibition at 10 µM for `Nc1ccc(S(=O)(=O)Nc2ccc(Cl)nn2)cc1` please.
Found: 14
